Record form. Attribute: Ki. Fill in for each entry.
# Assay system: Delta-type opioid receptor (Rattus norvegicus, UniProt P33533)
# Sequence (P33533 whole entry): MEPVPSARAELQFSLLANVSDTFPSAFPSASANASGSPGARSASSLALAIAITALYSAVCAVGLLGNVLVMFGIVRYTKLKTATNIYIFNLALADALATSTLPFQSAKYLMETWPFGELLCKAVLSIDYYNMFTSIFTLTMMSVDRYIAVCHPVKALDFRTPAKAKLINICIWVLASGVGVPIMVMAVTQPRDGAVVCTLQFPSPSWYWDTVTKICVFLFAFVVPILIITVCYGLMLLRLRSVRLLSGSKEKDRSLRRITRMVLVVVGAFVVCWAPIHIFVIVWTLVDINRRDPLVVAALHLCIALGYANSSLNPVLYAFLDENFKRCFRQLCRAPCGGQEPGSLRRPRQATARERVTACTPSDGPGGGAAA
# Protocol description: Displacement of [3H]diprenorphine from rat DOR transfected in rat C6 cell membranes after 1 hr by liquid scintillation counting
Use pM as the unit, but write only the number.

Suppose we examine the molecule COC(=O)N1CC[C@@H](NC(=O)[C@@H](N)Cc2c(C)cc(O)cc2C)c2cc(Cc3ccccc3)ccc21 ; what Ki value has been reported?
510

Suppose we examine the molecule COCC(=O)N1CC[C@@H](NC(=O)[C@@H](N)Cc2c(C)cc(O)cc2C)c2cc(Cc3ccccc3)ccc21 ; what Ki value has been reported?
2100

Suppose we examine the molecule Cc1cc(O)cc(C)c1C[C@H](N)C(=O)N[C@@H]1CCN(CC(=O)O)c2ccc(Cc3ccccc3)cc21 ; what Ki value has been reported?
67000

Suppose we examine the molecule CCCC(=O)N1CC[C@@H](NC(=O)[C@@H](N)Cc2c(C)cc(O)cc2C)c2cc(Cc3ccc4ccccc4c3)ccc21 ; what Ki value has been reported?
800

Suppose we examine the molecule CCCC(=O)N1CC[C@@H](NC(=O)[C@@H](N)Cc2c(C)cc(O)cc2C)c2cc(Cc3ccccc3)ccc21 ; what Ki value has been reported?
1000

Suppose we examine the molecule CCC(=O)N1CC[C@@H](NC(=O)[C@@H](N)Cc2c(C)cc(O)cc2C)c2cc(Cc3ccccc3)ccc21 ; what Ki value has been reported?
1100

Suppose we examine the molecule Cc1cc(O)cc(C)c1C[C@H](N)C(=O)N[C@@H]1CCN(C(=O)C2CCC2)c2ccc(Cc3ccccc3)cc21 ; what Ki value has been reported?
150

Suppose we examine the molecule Cc1cc(O)cc(C)c1C[C@H](N)C(=O)N[C@@H]1CCN(C(=O)c2ccccc2)c2ccc(Cc3ccccc3)cc21 ; what Ki value has been reported?
240

Suppose we examine the molecule CCC(=O)N1CC[C@@H](NC(=O)[C@@H](N)Cc2c(C)cc(O)cc2C)c2cc(Cc3ccc4ccccc4c3)ccc21 ; what Ki value has been reported?
210

Suppose we examine the molecule Cc1cc(O)cc(C)c1C[C@H](N)C(=O)N[C@@H]1CCN(C(=O)C2CC2)c2ccc(Cc3ccccc3)cc21 ; what Ki value has been reported?
350

====

# Assay system: Mu-type opioid receptor (Rattus norvegicus)
# Protocol description: Agonist activity at rat MOR transfected in rat C6 cell membranes at 10 uM after 1 hr by [35S]GTPgammaS assay relative to DAMGO
# Type: functional
Record form. Attribute: Emax. Fill in for each entry.
Use % as the unit, but write only the number.

Suppose we examine the molecule CCCC(=O)N1CC[C@@H](NC(=O)[C@@H](N)Cc2c(C)cc(O)cc2C)c2cc(Cc3ccccc3)ccc21 ; what Emax value has been reported?
53

Suppose we examine the molecule Cc1cc(O)cc(C)c1C[C@H](N)C(=O)N[C@@H]1CCN(C(=O)C(C)C)c2ccc(Cc3ccccc3)cc21 ; what Emax value has been reported?
95

Suppose we examine the molecule Cc1cc(O)cc(C)c1C[C@H](N)C(=O)N[C@@H]1CCN(C(=O)C2CC2)c2ccc(Cc3ccccc3)cc21 ; what Emax value has been reported?
88

Suppose we examine the molecule COC(=O)N1CC[C@@H](NC(=O)[C@@H](N)Cc2c(C)cc(O)cc2C)c2cc(Cc3ccc4ccccc4c3)ccc21 ; what Emax value has been reported?
110

Suppose we examine the molecule COCC(=O)N1CC[C@@H](NC(=O)[C@@H](N)Cc2c(C)cc(O)cc2C)c2cc(Cc3ccccc3)ccc21 ; what Emax value has been reported?
91

Suppose we examine the molecule CCC(=O)N1CC[C@@H](NC(=O)[C@@H](N)Cc2c(C)cc(O)cc2C)c2cc(Cc3ccccc3)ccc21 ; what Emax value has been reported?
96

Suppose we examine the molecule Cc1cc(O)cc(C)c1C[C@H](N)C(=O)N[C@@H]1CCN(C(=O)c2ccccc2)c2ccc(Cc3ccccc3)cc21 ; what Emax value has been reported?
74

Suppose we examine the molecule Cc1cc(O)cc(C)c1C[C@H](N)C(=O)N[C@@H]1CCN(C(=O)C2CCC2)c2ccc(Cc3ccccc3)cc21 ; what Emax value has been reported?
94

Suppose we examine the molecule CCOC(=O)CN1CC[C@@H](NC(=O)[C@@H](N)Cc2c(C)cc(O)cc2C)c2cc(Cc3ccccc3)ccc21 ; what Emax value has been reported?
79

Suppose we examine the molecule COC(=O)N1CC[C@@H](NC(=O)[C@@H](N)Cc2c(C)cc(O)cc2C)c2cc(Cc3ccccc3)ccc21 ; what Emax value has been reported?
95
